Items are presented alongside their recorded PC-3 PIP Tumor.
Test system: PC-3 PIP/flu tumor-bearing mice
assay explanation: Biodistribution in PC-3 PIP/flu tumor-bearing mice
setup conditions: 30 min p.i., i.v.; PSMA^pos xenograft
quantity kind: PC-3 PIP Tumor (% IA/g)

molecule	experimental result
O=C([O-])CN1CCN(CC(=O)[O-])CCN(CC(=O)NCC2CCC(C(=O)NC(Cc3ccc4ccccc4c3)C(=O)NCCCCC(NC(=O)NC(CCC(=O)O)C(=O)O)C(=O)O)CC2)CCN(CC(=O)[O-])CC1.[44Sc+3] (stereo not shown) [^44Sc-PSMA-617]	44.4
O=C([O-])CN1CCN(CC(=O)[O-])CCN(CC(=O)NCC2CCC(C(=O)NC(Cc3ccc4ccccc4c3)C(=O)NCCCCC(NC(=O)NC(CCC(=O)O)C(=O)O)C(=O)O)CC2)CCN(CC(=O)[O-])CC1.[68Ga+3] (stereo not shown) [^68Ga-PSMA-617]	48.5
O=C([O-])CN1CCN(CC(=O)[O-])CCN(CC(=O)NCC2CCC(C(=O)N[C@@H](Cc3ccc4ccccc4c3)C(=O)NCCCC[C@H](NC(=O)N[C@@H](CCC(=O)O)C(=O)O)C(=O)O)CC2)CCN(CC(=O)[O-])CC1.[177Lu+3] (stereo partly shown) [^177Lu-PSMA-617]	47.0
O=C([O-])CN(CCN(CC(=O)[O-])Cc1cc(CCC(=O)NCCCCCC(=O)NCCCC[C@H](NC(=O)N[C@@H](CCC(=O)O)C(=O)O)C(=O)O)ccc1[O-])Cc1cc(CCC(=O)O)ccc1[O-].[68Ga+3] [^68Ga-PSMA-11]	49.3
